Values compiled from patent US20200283478A1.

SYSTEM UNDER TEST: T1, His-tagged PCSK9Δhelix (human, UniProt Q8NBP7 31-152; Q8NBP7 168-692)
T1 construct: Human PCSK9 M1-Q692 with an engineered TEV site, cut by TEV protease; new N-terminus of the catalytic domain is S-A168; also called His-PCSK9Δhelix; not shown: His tag
T1 sequence (Q8NBP7 31-152, stated change not applied, chain 1 of 2): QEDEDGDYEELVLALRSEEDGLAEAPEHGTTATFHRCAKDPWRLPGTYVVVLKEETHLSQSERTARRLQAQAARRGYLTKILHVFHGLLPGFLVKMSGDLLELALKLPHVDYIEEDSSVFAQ
T1 sequence (Q8NBP7 other isoform, or with tags, fused parts or gaps mutant, chain 2 of 2): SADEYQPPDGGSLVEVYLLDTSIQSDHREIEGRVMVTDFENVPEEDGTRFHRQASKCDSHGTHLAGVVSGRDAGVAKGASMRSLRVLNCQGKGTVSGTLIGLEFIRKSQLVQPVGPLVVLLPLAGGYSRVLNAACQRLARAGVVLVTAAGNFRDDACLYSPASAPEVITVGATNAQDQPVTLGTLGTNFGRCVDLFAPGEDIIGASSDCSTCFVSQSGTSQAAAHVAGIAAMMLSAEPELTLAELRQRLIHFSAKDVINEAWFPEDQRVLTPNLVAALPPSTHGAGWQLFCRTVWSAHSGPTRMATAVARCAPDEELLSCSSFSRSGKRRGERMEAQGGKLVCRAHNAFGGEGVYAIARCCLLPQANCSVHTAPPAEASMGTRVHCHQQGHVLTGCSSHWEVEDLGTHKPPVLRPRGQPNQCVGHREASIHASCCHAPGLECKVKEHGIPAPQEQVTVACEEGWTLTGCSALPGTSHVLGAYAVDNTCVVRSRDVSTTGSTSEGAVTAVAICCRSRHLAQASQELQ
METHOD: TR-FRET competition (PCSK9Δhelix/Ab20 assay); competitor Ab20
pIC50: −log10 of the molar value. Bridge positions count the residues as written; N and C are the ends.
Param threshold (5) applies to pIC50; output fulfilled when value >= threshold, not fulfilled when value < threshold.

BINDER	ASSIGNED CLASS
Ac-CRLPWALQRIGLPC-NH2 (disulfide 1-14; SMILES CC[C@H](C)[C@@H]1NC(=O)[C@H](CCCNC(=N)N)NC(=O)[C@H](CCC(N)=O)NC(=O)[C@H](CC(C)C)NC(=O)[C@H](C)NC(=O)[C@H](Cc2c[nH]c3ccccc23)NC(=O)[C@@H]2CCCN2C(=O)[C@H](CC(C)C)NC(=O)[C@H](CCCNC(=N)N)NC(=O)[C@@H](NC(C)=O)CSSC[C@@H](C(N)=O)NC(=O)[C@@H]2CCCN2C(=O)[C@H](CC(C)C)NC(=O)CNC1=O) [Compound 75 (Ac-CRLPWALQRIGLPC-NH2)]	not fulfilled
Ac-CRAPWNLQRIGLPC-NH2 (disulfide 1-14; SMILES CC[C@H](C)[C@@H]1NC(=O)[C@H](CCCNC(=N)N)NC(=O)[C@H](CCC(N)=O)NC(=O)[C@H](CC(C)C)NC(=O)[C@H](CC(N)=O)NC(=O)[C@H](Cc2c[nH]c3ccccc23)NC(=O)[C@@H]2CCCN2C(=O)[C@H](C)NC(=O)[C@H](CCCNC(=N)N)NC(=O)[C@@H](NC(C)=O)CSSC[C@@H](C(N)=O)NC(=O)[C@@H]2CCCN2C(=O)[C@H](CC(C)C)NC(=O)CNC1=O) [Compound 78 (Ac-CRAPWNLQRIGLPC-NH2)]	fulfilled
Ac-CRLPWNLQAIGLPC-NH2 (disulfide 1-14; SMILES CC[C@H](C)[C@@H]1NC(=O)[C@H](C)NC(=O)[C@H](CCC(N)=O)NC(=O)[C@H](CC(C)C)NC(=O)[C@H](CC(N)=O)NC(=O)[C@H](Cc2c[nH]c3ccccc23)NC(=O)[C@@H]2CCCN2C(=O)[C@H](CC(C)C)NC(=O)[C@H](CCCNC(=N)N)NC(=O)[C@@H](NC(C)=O)CSSC[C@@H](C(N)=O)NC(=O)[C@@H]2CCCN2C(=O)[C@H](CC(C)C)NC(=O)CNC1=O) [Compound 72 (Ac-CRLPWNLQAIGLPC-NH2)]	not fulfilled
Ac-MCLWNLKRIGSQCEY-NH2 (disulfide 2-13; SMILES CC[C@H](C)[C@@H]1NC(=O)[C@H](CCCNC(=N)N)NC(=O)[C@H](CCCCN)NC(=O)[C@H](CC(C)C)NC(=O)[C@H](CC(N)=O)NC(=O)[C@H](Cc2c[nH]c3ccccc23)NC(=O)[C@H](CC(C)C)NC(=O)[C@@H](NC(=O)[C@H](CCSC)NC(C)=O)CSSC[C@@H](C(=O)N[C@@H](CCC(=O)O)C(=O)N[C@@H](Cc2ccc(O)cc2)C(N)=O)NC(=O)[C@H](CCC(N)=O)NC(=O)[C@H](CO)NC(=O)CNC1=O) [Compound 63 (Ac-MCLWNLKRIGSQCEY-NH2)]	fulfilled
Ac-SGCFIPWNLQRIGLLC-NH2 (disulfide 3-16; SMILES CC[C@H](C)[C@@H]1NC(=O)[C@H](CCCNC(=N)N)NC(=O)[C@H](CCC(N)=O)NC(=O)[C@H](CC(C)C)NC(=O)[C@H](CC(N)=O)NC(=O)[C@H](Cc2c[nH]c3ccccc23)NC(=O)[C@@H]2CCCN2C(=O)[C@H]([C@@H](C)CC)NC(=O)[C@H](Cc2ccccc2)NC(=O)[C@@H](NC(=O)CNC(=O)[C@H](CO)NC(C)=O)CSSC[C@@H](C(N)=O)NC(=O)[C@H](CC(C)C)NC(=O)[C@H](CC(C)C)NC(=O)CNC1=O) [Compound 29 (Ac-SG-CFIPWNLQRIGLLC-NH2)]	fulfilled
